# System: FLJ41991-derived protein (Homo sapiens, UniProt P57764, E293G)
# Construct: His-tag (N); made in house; host or cells: Escherichia coli BL21star(DE3)pLysS (pDEST17)
# Sequence (P57764 265-484 E293G): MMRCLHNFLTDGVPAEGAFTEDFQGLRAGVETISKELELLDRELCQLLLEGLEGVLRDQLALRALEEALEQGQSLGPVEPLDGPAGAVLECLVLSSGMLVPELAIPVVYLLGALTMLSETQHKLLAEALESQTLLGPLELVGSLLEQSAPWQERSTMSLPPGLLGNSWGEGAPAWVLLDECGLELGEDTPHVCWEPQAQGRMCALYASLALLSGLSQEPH
# Experiment description: SEC/MS interaction analysis, FLJ41991-derived protein (GSDMDC1)
# Format: binding
# Applied conditions: compound 12.5 μM, protein 25 μM
Measured endpoint: spectrum intensity of the compound in the SEC spin column filtrate
Field format: numeric only.

Notebook: OCCN1CCN(CCCN2c3ccccc3Sc3ccc(C(F)(F)F)cc32)CC1 [fluphenazine] , spectrum intensity of the compound in the SEC spin column filtrate read as 1101486

// spectrum intensity of the compound in the SEC spin column filtrate value for CC(C)(C)c1ccc(C(O)CCCN2CCC(C(O)(c3ccccc3)c3ccccc3)CC2)cc1 (stereo not shown) [terfenadine] : 1734729

# spectrum intensity of the compound in the SEC spin column filtrate of CN(C)C(=O)C(CCN1CCC(O)(c2ccc(Cl)cc2)CC1)(c1ccccc1)c1ccccc1 [loperamide] = 1688197

Value of spectrum intensity of the compound in the SEC spin column filtrate reported for the molecule CN(C)CC/C=C1/c2ccccc2Sc2ccc(Cl)cc21 [chlorprothixene] is 393132

These data points were gathered from patent US20090143285A1.
